experiment: Investigation of the cataleptogenic effect (catalepsy); assay type: in vivo, Hann-Wistar rats (male); conditions: rat, in vivo, po, hourly observed for 5 hours, rats
measuredParameter: ED50 at 5 h (mg/kg)
Supply the numeric figure in mg/kg, leaving out any unit text.

What measured ED50 at 5 h goes with CC(=O)OCC1C=C2c3cccc4c3c(c(Cl)n4C=O)CC2N(C)C1 (stereo not shown) ?
51.9

Entry under review: CC(=O)OCC1C=C2c3cccc4c3c(c(Cl)n4C(C)=O)CC2N(C)C1 (stereo not shown) . Reported ED50 at 5 h?
46.5

Name the recorded ED50 at 5 h for CCN(CC)C(=O)NC1C=C2c3cccc4[nH]c(Br)c(c34)CC2N(C)C1 (stereo not shown) [2-Bromolysuride, 2-bromolysuride, reference compound] .
3.3

Field request: ED50 at 5 h | item: CC(=O)OCC1C=C2c3cccc4c3c(c(Br)n4C(C)=O)CC2N(C)C1 (stereo not shown)
42.4

====

Measured Amphetamine group tox. (percent) of individual entries
experiment: Investigation of the amphetamine group toxicity; type: in vivo, CFLP mice; conditions: 30 mg/kg p.o., d-amphetamine 21 mg/kg i.p., 24 hours, mice
Respond with the bare value in %.

Solved cases (3 shown):
[
  {
    "compound": "CN1CC(CCl)C=C2c3cccc4c3c(c(Cl)n4C=O)CC21 (stereo not shown)",
    "measuredParameter": "Amphetamine group tox. (percent)",
    "testValue": 0
  },
  {
    "compound": "CN1CC(CO)C=C2c3cccc4c3c(c(Cl)n4C)CC21 (stereo not shown)",
    "measuredParameter": "Amphetamine group tox. (percent)",
    "testValue": 0
  },
  {
    "compound": "CC(=O)OCC1C=C2c3cccc4c3c(c(Cl)n4C=O)CC2N(C)C1 (stereo not shown)",
    "measuredParameter": "Amphetamine group tox. (percent)",
    "testValue": 10
  }
]

Recorded Amphetamine group tox. (percent) of CC(=O)OCC1C=C2c3cccc4c3c(c(Br)n4C(C)=O)CC2N(C)C1 (stereo not shown) , please.
0

====

tested on: dopaminergic system; assay: Investigation of the apomorphine hypothermia-reverting effect; assay type: in vivo, Hann-Wistar rats; conditions: 60 min; 10 mg/kg p.o., apomorphine 5 mg/kg i.p., rats
measuredParameter: Apomorphine hypothermia, difference of temperature change vs. apomorphine alone, 60 min

Observe how each entry below is paired with its result.
[
  {
    "compound": "CC(=O)OCC1C=C2c3cccc4c3c(c(Br)n4C(C)=O)CC2N(C)C1 (centres unmarked)",
    "testValue": "+0.9 °C"
  },
  {
    "compound": "CC(=O)OCC1C=C2c3cccc4c3c(c(Cl)n4C(C)=O)CC2N(C)C1 (centres unmarked)",
    "testValue": "+1.3 °C"
  },
  {
    "compound": "CN1CC(CO)C=C2c3cccc4c3c(c(Cl)n4C)CC21 (centres unmarked)",
    "testValue": "+0.8 °C"
  }
]

Query (compound): CN1CC(CCl)C=C2c3cccc4c3c(c(Cl)n4C=O)CC21 (centres unmarked) ; field requested: Apomorphine hypothermia, difference of temperature change vs. apomorphine alone, 60 min
+0.6 °C

Quick one: Apomorphine hypothermia, difference of temperature change vs. apomorphine alone, 60 min for CC(=O)OCC1C=C2c3cccc4c3c(c(Cl)n4C=O)CC2N(C)C1 (centres unmarked) ?
+2.0 °C
